Where do the numbers come from? From ChEMBL document CHEMBL5550097.

assay: Drug accumulation in pig LLC-PK1 cells assessed as fold increase by LC-MS/MS analysis relative to (S)-5-chloro-4-(4-chloro-1-methyl-1H-pyrazol-5-yl)-N-(1-((6-((3-(3-cyclopropyl-5-((2-fluoro-4-iodophenyl)amino)-6,8-dimethyl-2,4,7-trioxo-3,4,6,7-tetrahydropyrido[4,3-d]pyrimidin-1(2H)-yl)phenyl)amino)-6-oxohexyl)amino)-3-(3-fluorophenyl)propan-2-yl)thiophene-2-carboxamide; assay type: ADME, cell-based, Sus scrofa
Binarize fold change (FC) at 1; below is Y, at or above is N.

Consider the following illustrative entries.
smiles_string	category
Cc1c(=O)n(C)c(Nc2ccc(I)cc2F)c2c(=O)n(C3CC3)c(=O)n(-c3cccc(NC(=O)CCOCCN4CCC5(CC4)CCN(c4ncnc6[nH]cc(Cl)c46)C5)c3)c12	N
COc1cc(Nc2cccc(-n3c(=O)n(C4CC4)c(=O)c4c(Nc5ccc(I)cc5F)n(C)c(=O)c(C)c43)c2)cc(OCCCN2CCC3(CC2)CCN(c2ncnc4[nH]cc(Cl)c24)C3)c1	Y
COc1cc(Nc2cccc(-n3c(=O)n(C4CC4)c(=O)c4c(Nc5ccc(I)cc5F)n(C)c(=O)c(C)c43)c2)cc(OCCCNC2CCN(c3ncnc4[nH]ccc34)CC2)c1	N
COc1cc(Nc2cccc(-n3c(=O)n(C4CC4)c(=O)c4c(Nc5ccc(I)cc5F)n(C)c(=O)c(C)c43)c2)cc(OCCCNC[C@H](Cc2cccc(F)c2)NC(=O)c2cc(-c3c(Cl)cnn3C)c(Cl)s2)c1	Y
Cc1c(=O)n(C)c(Nc2ccc(I)cc2F)c2c(=O)n(C3CC3)c(=O)n(-c3cccc(NC(=O)[C@H](Cc4c[nH]cn4)NC(=O)CNC[C@H](Cc4cccc(F)c4)NC(=O)c4cc(-c5c(Cl)cnn5C)c(Cl)s4)c3)c12.Cl	Y

Is fold change (FC) strictly under 1 for the entry `Cc1c(=O)n(C)c(Nc2ccc(I)cc2F)c2c(=O)n(C3CC3)c(=O)n(-c3cccc(NC(=O)COCC(F)(F)C(F)(F)C(F)(F)C(F)(F)C(F)(F)C(F)(F)C(F)(F)C(F)(F)CNC(=O)CNC[C@H](Cc4cccc(F)c4)NC(=O)c4cc(-c5c(Cl)cnn5C)c(Cl)s4)c3)c12` ? Y

Is fold change (FC) strictly under 1 for the entry `Cc1c(=O)n(C)c(Nc2ccc(I)cc2F)c2c(=O)n(C3CC3)c(=O)n(-c3cccc(NCC(=O)C(C)(C)c4ccc(C(C)(C)C(=O)CNC5(c6ccc(-c7nc8ccn9c(=O)[nH]nc9c8cc7-c7ccccc7)cc6)CCC5)o4)c3)c12` ? N

Is fold change (FC) strictly under 1 for the entry `Cc1c(=O)n(C)c(Nc2ccc(I)cc2F)c2c(=O)n(C3CC3)c(=O)n(-c3cccc(NC(=O)COCCOCCN4CCC5(CC4)CCN(c4ncnc6[nH]cc(Cl)c46)C5)c3)c12` ? N
